test system: PPARg:RXRa 30nM:10nM, anti-RXR (NR concentration 30 nM, RXRa partner concentration 10 nM); assay: PBM binding z-score (relative to random genomic background probes); higher = stronger binding; sequences stand for … in GC…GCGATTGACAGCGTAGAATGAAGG
Recorded metric: PBM binding z-score

Worked examples, 5 sequences total:
INSERT INTO assay_data (query_sequence, result) VALUES
  ('ATATGTAGGTTACATCCGGGACATTCAGGCTATG', 1.95),
  ('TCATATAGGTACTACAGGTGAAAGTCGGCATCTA', 3.93),
  ('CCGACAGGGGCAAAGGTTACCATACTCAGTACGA', 5.17),
  ('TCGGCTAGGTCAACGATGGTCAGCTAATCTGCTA', 1.62),
  ('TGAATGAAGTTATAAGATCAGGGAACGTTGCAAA', 0.157);

Query: Notebook entry, PPARg:RXRa 30nM:10nM, anti-RXR (NR concentration 30 nM, RXRa partner concentration 10 nM) assay: PBM binding z-score of "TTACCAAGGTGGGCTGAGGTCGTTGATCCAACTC" = ?
Reply: -0.219

Query: Notebook entry, PPARg:RXRa 30nM:10nM, anti-RXR (NR concentration 30 nM, RXRa partner concentration 10 nM) assay: PBM binding z-score of "TGTCAAAGTTCAAAGATAACGTAAGTATCCACAC" = ?
Reply: 4.95

Query: Notebook entry, PPARg:RXRa 30nM:10nM, anti-RXR (NR concentration 30 nM, RXRa partner concentration 10 nM) assay: PBM binding z-score of "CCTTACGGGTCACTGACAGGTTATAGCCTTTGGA" = ?
Reply: 1.31

Query: Notebook entry, PPARg:RXRa 30nM:10nM, anti-RXR (NR concentration 30 nM, RXRa partner concentration 10 nM) assay: PBM binding z-score of "CCTCGGAGGACAACAGGAGGCCAGAGCTGCCAGA" = ?
Reply: -0.765

Query: Notebook entry, PPARg:RXRa 30nM:10nM, anti-RXR (NR concentration 30 nM, RXRa partner concentration 10 nM) assay: PBM binding z-score of "TCATATAGGTAAAAGATGAAAGTCGGTGTGGTAA" = ?
Reply: 5.17

Query: Notebook entry, PPARg:RXRa 30nM:10nM, anti-RXR (NR concentration 30 nM, RXRa partner concentration 10 nM) assay: PBM binding z-score of "ATACCAAGGTGCTCGTGAGGTCGTTGATACTAAC" = ?
Reply: -0.413

Query: Notebook entry, PPARg:RXRa 30nM:10nM, anti-RXR (NR concentration 30 nM, RXRa partner concentration 10 nM) assay: PBM binding z-score of "AGAATGAGGTTAAGACCAGGGAAACAGAATACAT" = ?
Reply: 0.945

Query: Notebook entry, PPARg:RXRa 30nM:10nM, anti-RXR (NR concentration 30 nM, RXRa partner concentration 10 nM) assay: PBM binding z-score of "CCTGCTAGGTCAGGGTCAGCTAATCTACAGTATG" = ?
Reply: 0.682

Query: Notebook entry, PPARg:RXRa 30nM:10nM, anti-RXR (NR concentration 30 nM, RXRa partner concentration 10 nM) assay: PBM binding z-score of "GCGACTGGGGCAAAGCAGGTAACCATAAGGTTGG" = ?
Reply: -0.433

Query: Notebook entry, PPARg:RXRa 30nM:10nM, anti-RXR (NR concentration 30 nM, RXRa partner concentration 10 nM) assay: PBM binding z-score of "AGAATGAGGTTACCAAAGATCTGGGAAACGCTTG" = ?
Reply: 0.756

---

tested on: THRa:RXRa (NR concentration 90 nM, RXRa partner concentration 90 nM); experiment: PBM binding z-score (relative to random genomic background probes); higher = stronger binding; sequences stand for … in GC…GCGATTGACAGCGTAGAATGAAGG
Please enter Criterion met where PBM binding z-score is greater than or equal to 3, and Criterion not met where it is lower.

These solved cases illustrate the format of a correct answer.
INSERT INTO assay_data (query_sequence, label) VALUES
  ('CGAACTAGGTCATTAACAGGACAGTGAATAGTAA', 'Criterion not met'),
  ('TCATATATGTAAAAGGTGAAAGTCGGTGTGGTAA', 'Criterion not met'),
  ('TCTGCTAGGTCAGTTGGACAGCTAACGAGCTGCC', 'Criterion not met'),
  ('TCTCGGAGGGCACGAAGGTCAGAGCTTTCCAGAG', 'Criterion not met'),
  ('CAAACTAGGTCACCGGAAGGTCAAACTCCGCATG', 'Criterion met'),
  ('CAAACTAGGTCCAGAGGTCAAAGTCCGCTTCCCG', 'Criterion met');

Note: attention shifts to another entry.
Query: Could you tell me if the measured PBM binding z-score of "TAGCCTAGGTCTTTCAGGGGCCAGTATAGAAAGC" reaches 3 or more?
Reply: Criterion not met

---

test system: PXR homodimer (NR concentration 270 nM); experiment: PBM binding z-score (relative to random genomic background probes); higher = stronger binding; sequences stand for … in GC…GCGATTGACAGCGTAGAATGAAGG
Entries and their measured PBM binding z-score follow.
Please respond with just the number, no unit label.

INSERT INTO measurements (query_sequence, recorded_metric, numeric_value) VALUES
  ('CGAACGAGGACATGAGTTGATAGCAAATGCCGAT', 'PBM binding z-score', 0.0683),
  ('GTAACGAGGGCATTCGAGTTGATAGCATGGCGAT', 'PBM binding z-score', 2.23),
  ('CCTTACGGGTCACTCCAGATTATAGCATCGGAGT', 'PBM binding z-score', 0.423);

# context switch: different sequence, same PBM binding z-score
Query: Name the reported PBM binding z-score value associated with the sequence "CCAACTAGGTCACCGGAAGGTCAAAGTCCGCATG"
Reply: 2.46

---

Entries and their measured PBM binding z-score follow.
tested on: FXR:RXRa (NR concentration 270 nM, RXRa partner concentration 90 nM); assay: PBM binding z-score (relative to random genomic background probes); higher = stronger binding; sequences stand for … in GC…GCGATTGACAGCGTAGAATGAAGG

Worked examples, 5 sequences total:
INSERT INTO results (query_sequence, result) VALUES
  ('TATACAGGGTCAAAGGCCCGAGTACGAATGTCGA', 6.5),
  ('TCAGACAGGTGAAGGTAACTCCGGTACGCAGTCG', 0.787),
  ('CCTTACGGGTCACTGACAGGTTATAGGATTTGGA', 4.95),
  ('CCTCCTAGGTCAATGGTCAGCTAAAGCAGCTCGC', 3.28),
  ('CCTACTGGGCCATCAGGTCATTGATATCAACGTT', 1.4);

Query: Name the reported PBM binding z-score value associated with the sequence "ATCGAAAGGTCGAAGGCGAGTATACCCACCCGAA"
Reply: 4.01

Query: Name the reported PBM binding z-score value associated with the sequence "CCTGCTAGGTCAATGGTGAGCTAAAGCAGCTCGC"
Reply: 2.56

---

tested on: RXRa DBDmut IVT, anti-RXR (DBD mutation: RXRa K156A/R161A, NR concentration 90 nM); test: PBM binding z-score (relative to random genomic background probes); higher = stronger binding; sequences stand for … in GC…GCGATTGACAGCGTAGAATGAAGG
Recorded metric: PBM binding z-score
Please respond with just the number, no unit label.

INSERT INTO measurements (query_sequence, recorded_metric, numeric_value) VALUES
  ('ACTTACGGGTCAACGAGGTTATAGCGCGCGTATA', 'PBM binding z-score', 2.92),
  ('CCTAGCAGGCCAATCTGGGTCGCTCAAGGCTTGA', 'PBM binding z-score', -0.847),
  ('TAGCCTAGGTCATGGTCCAGTATACCACGCGAAC', 'PBM binding z-score', 0.681),
  ('GGAACGAGGGCCAAGTTGATAGCATCTGTCGACG', 'PBM binding z-score', 0.125);

Query: Name the reported PBM binding z-score value associated with the sequence "ACTATTAGTTGAGACTAGGGCAACCGATAGGTTG"
Reply: -0.0472

Query: Name the reported PBM binding z-score value associated with the sequence "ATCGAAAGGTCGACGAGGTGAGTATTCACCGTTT"
Reply: 1.13

Query: Name the reported PBM binding z-score value associated with the sequence "TCTCGGAGGACACGAAGGTAAGAGCTTTCCAGAG"
Reply: 0.371

Query: Name the reported PBM binding z-score value associated with the sequence "TCTTGTAGATCAACGGTTAAGAAAGCCGAAGCCT"
Reply: 0.721

Query: Name the reported PBM binding z-score value associated with the sequence "CCAGACAGGTGAGCAGGTAACTCAGCCTCGATTA"
Reply: -0.0126

Query: Name the reported PBM binding z-score value associated with the sequence "TAGCCTAGGTCATGCGGGCCACTATAGTGTCGGC"
Reply: 0.662

Query: Name the reported PBM binding z-score value associated with the sequence "ACAGACAGGAGATGAAGGTAACTCAGGCTATCAT"
Reply: -0.203

Query: Name the reported PBM binding z-score value associated with the sequence "CCTACTGGGCCATCAGGTCATTGAAATCAACGTT"
Reply: 0.155

Query: Name the reported PBM binding z-score value associated with the sequence "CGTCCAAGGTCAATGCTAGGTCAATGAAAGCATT"
Reply: 3.4

Query: Name the reported PBM binding z-score value associated with the sequence "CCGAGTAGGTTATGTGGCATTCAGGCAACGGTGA"
Reply: 0.434

Query: Name the reported PBM binding z-score value associated with the sequence "CGTCCAAGGTCAGCAGGTCAGTGTAAGCGACGTG"
Reply: 2.55

Query: Name the reported PBM binding z-score value associated with the sequence "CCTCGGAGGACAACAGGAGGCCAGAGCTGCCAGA"
Reply: -0.152

Query: Name the reported PBM binding z-score value associated with the sequence "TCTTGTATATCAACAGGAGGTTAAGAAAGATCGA"
Reply: 0.943
